Biological target: ADORA2a/CHOK1 cells (Homo sapiens)
Construct: host or cells: CHO-K1
Sequence (P29274 whole entry): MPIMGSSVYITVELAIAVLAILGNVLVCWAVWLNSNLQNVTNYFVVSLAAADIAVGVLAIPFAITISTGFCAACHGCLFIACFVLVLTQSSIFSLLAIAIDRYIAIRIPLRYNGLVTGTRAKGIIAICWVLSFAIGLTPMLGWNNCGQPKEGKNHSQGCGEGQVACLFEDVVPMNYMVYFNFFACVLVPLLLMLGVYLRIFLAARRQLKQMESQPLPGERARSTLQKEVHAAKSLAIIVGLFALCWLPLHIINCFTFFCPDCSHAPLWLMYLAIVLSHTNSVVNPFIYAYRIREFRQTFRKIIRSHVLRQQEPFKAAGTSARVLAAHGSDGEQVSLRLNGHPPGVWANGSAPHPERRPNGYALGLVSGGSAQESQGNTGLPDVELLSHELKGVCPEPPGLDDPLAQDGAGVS
Assay: Inhibitory activity for ADORA2a/CHOK1 cells (cAMP detection, adenosine as agonist)
Assay type: cell-based
Conditions: CHO-K1, 1000 nM compound, read-out: Inhibition rate at 1000 nM

COMPOUND | TARGET SYSTEM | inhibition at 1 µM, %
Cc1cc(-c2cnc(NC(=O)N3CCOCC3)nc2-c2ccc(F)cc2)cc(Cl)n1 [Compound 19] | ADORA2a/CHOK1 cells (Homo sapiens) | 94.4
Cc1ncnc2ccc(-c3c(-c4ccc(F)cc4)nc(NC(=O)N4CCOCC4)nc3C3CC3)cc12 [Compound 44] | ADORA2a/CHOK1 cells (Homo sapiens) | 104
Cc1ncnc2ccc(-c3c(C#N)cc(NC(=O)N4CCOCC4)nc3-c3ccc(F)cc3)cc12 [Compound 43] | ADORA2a/CHOK1 cells (Homo sapiens) | 100
Cc1ncnc2ccc(-c3cnc(NC(=O)N4CCOCC4)nc3-c3ccc(F)cc3)cc12 [Compound 11] | ADORA2a/CHOK1 cells (Homo sapiens) | 112

###

Biological target: Adenosine A2a receptor (human) membrane (Homo sapiens)
Construct: purchased PerkinElmer RBHA2AM400UA
Sequence (P29274 whole entry): as above
Test: Determination of competitive inhibition constant (Ki) for adenosine A2a receptor, [3H]-CGS-21680 radioligand
Format: binding
Details: selectivity ratio A1 over A2a
Recorded measurements of Ki(A1)/Ki(A2a), one per entry

MOLECULE | Ki(A1)/Ki(A2a)
Cc1ncnc2ccc(-c3cc(F)c(N)nc3-c3ccc(F)cc3)cc12 [Compound 2] | 258.6
Cc1cc(-c2cnc(NC(=O)N3C[C@@H](C)O[C@@H](C)C3)nc2-c2ccc(F)cc2)cc(Cl)n1 [Compound 37] | 173.7
Cc1ncnc2ccc(-c3ccc(N)nc3-c3ccc(F)cc3)cc12 [Compound 1] | 339.0
Cc1ccnc2ccc(-c3c(-c4ccc(F)cc4)nc(NC(=O)N4CCOCC4)nc3C3CC3)cc12 [Compound 47] | 42.4

###

Biological target: Adenosine A2a receptor (human) membrane (Homo sapiens)
Construct: purchased PerkinElmer RBHA2AM400UA
Test: Determination of competitive inhibition constant (Ki) for adenosine A2a receptor, [3H]-CGS-21680 radioligand
Assay type: binding
Details: human A2a receptor membrane, 6.0 nM [3H]-CGS-21680; read-out: Ki(A2a)
Recorded measurements of Ki, one per entry
ASSAY METRIC: Ki

STRUCTURE | MEAS VALUE
Cc1cc(-c2cnc(NC(=O)N3CCCCC3)nc2-c2ccc(F)cc2)cc(Cl)n1 | 14.7 nM
COC1CCN(C(=O)Nc2ncc(-c3ccc4ncnc(C)c4c3)c(-c3ccc(F)cc3)n2)CC1 | 9.8 nM
Cc1ncnc2ccc(-c3ccc(N)nc3-c3ccc(F)cc3)cc12 | 9.6 nM
Cc1cc(-c2cnc(NC(=O)N3CCO[C@H](C)C3)nc2-c2ccc(F)cc2)cc(Cl)n1 | 13.1 nM
Cc1ncnc2ccc(-c3cnc(NC(=O)N(C)c4ccccc4)nc3-c3ccc(F)cc3)cc12 | 8.8 nM
Cc1ncnc2ccc(-c3cnc(NC(=O)NCc4ccccn4)nc3-c3ccc(F)cc3)cc12 | 14.3 nM
Cc1cc(-c2cnc(NC(=O)N3CCO[C@@H](C)C3)nc2-c2ccc(F)cc2)cc(Cl)n1 | 10.6 nM
Cc1cc(-c2nnc(NC(=O)N3CCC(N4CCCCC4)CC3)nc2-c2ccc(C)o2)cc(Cl)n1 | 9.9 nM
Cc1cc(Cl)cc(-c2nnc(NC(=O)N3CCC(N4CCCCC4)CC3)nc2-c2ccc(C)o2)c1 | 9 nM
Cc1ncnc2ccc(-c3cnc(NC(=O)N4C[C@@H](C)O[C@@H](C)C4)nc3-c3ccc(F)cc3)cc12 | 11 nM
Cc1ncnc2ccc(-c3cnc(NC(=O)N4CCO[C@@H](C)C4)nc3-c3ccc(F)cc3)cc12 | 12.6 nM
Cc1ncnc2ccc(-c3c(-c4ccc(F)cc4)nc(NC(=O)N4CCOCC4)nc3C3CC3)cc12 | 14.5 nM
Cc1cc(Cl)cc(-c2cnc(NC(=O)N3CCC(N4CCCCC4)CC3)nc2-c2ccc(C)o2)c1 | 6.6 nM
Cc1cc(-c2c(C#N)cc(NC(=O)N3CCOCC3)nc2-c2ccc(F)cc2)cc(Cl)n1 | 11.8 nM
Cc1cc(-c2cnc(NC(=O)N3CCOCC3)nc2-c2ccc(F)cc2)cc(Cl)n1 | 9.6 nM
Cc1cc(-c2cnc(NC(=O)N(C)Cc3ccccn3)nc2-c2ccc(F)cc2)cc(Cl)n1 | 8.1 nM
Cc1ncnc2ccc(-c3cc(F)c(NC(=O)N4CCOCC4)nc3-c3ccc(F)cc3)cc12 | 9.5 nM
